Origin of measurements: ChEMBL document CHEMBL1128288

System: Proteus vulgaris
Experiment: In vitro antibacterial activity measured as minimum inhibitory concentration was evaluated on proteus vulgaris ATCC 8427 (Pv).
Format: functional
Quantity: MIC (µg/mL)

A = C[C@@H]1[C@H](N)CN1c1c(F)cc2c(=O)c(C(=O)O)cn(C3CC3)c2c1F (stereo in doubt; 23)
B = C[C@@H]1[C@@H](N)CN1c1c(F)cc2c(=O)c(C(=O)O)cn(C3CC3)c2c1F (stereo in doubt; 22b)
C = C[C@@H]1[C@H](N)CN1c1c(F)cc2c(=O)c(C(=O)O)cn(C3CC3)c2c1F (stereo in doubt; 23c)
Ascending by MIC, please. The labels, placed in the requested order, form the answer.
C, A, B
